biological target: Mcl-1/Bim interaction, recombinant human Mcl-1 (171-327) (Homo sapiens, UniProt Q07820); construct: made in house; assay: Cell free Mcl-1: Bim Affinity Assay (Mcl-1 HTRF); assay type: binding; conditions: TR-FRET, 0.1 nM Mcl-1 (171-327), 0.05 nM biotin-Bim (51-76)
Sequence (Q07820 171-327): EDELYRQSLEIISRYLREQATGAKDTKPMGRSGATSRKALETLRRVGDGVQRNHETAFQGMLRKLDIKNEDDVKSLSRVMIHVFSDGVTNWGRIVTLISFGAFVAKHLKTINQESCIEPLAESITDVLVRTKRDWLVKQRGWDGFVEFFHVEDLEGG
Answer each item with its documented pIC50.
Give bare numbers, as −log10 of the molar value.

COMPOUND	PARAMETER_MEASURED	RESULT
O=C1NS(=O)(=O)[C@@H]2CCCC[C@H]2CCC[C@H](O)[C@@H]2CC[C@H]2CN2C[C@@]3(CCCc4cc(Cl)ccc43)COc3ccc1cc32 (single isomer, unassigned) [Example 333]	pIC50	9.02
COCC[C@H]1CC/C=C/[C@H](O)[C@@H]2CC[C@H]2CN2C[C@@]3(CCCc4cc(Cl)ccc43)COc3ccc(cc32)C(=O)NS1(=O)=O (single isomer, unassigned) [Example 443]	pIC50	8.82
COCCO[C@H]1/C=C/C[C@H](C)[C@@H](CCOC)S(=O)(=O)NC(=O)c2ccc3c(c2)N(C[C@@H]2CC[C@H]21)C[C@@]1(CCCc2cc(Cl)ccc21)CO3 (single isomer, unassigned) [Example 397]	pIC50	9.64
CCN1[C@H](C)C/C=C/[C@H](O)[C@@H]2CC[C@H]2CN2C[C@@]3(CCCc4cc(Cl)ccc43)COc3ccc(cc32)C(=O)NS1(=O)=O [Example 59]	pIC50	8.37

Now for another entry.
[in] // query pIC50 value for entry CC[C@@H]1CC/C=C/[C@H](OCCS(C)(=O)=O)[C@@H]2CC[C@H]2CN2C[C@@]3(CCCc4cc(Cl)ccc43)COc3ccc(cc32)C(=O)NS1(=O)=O [Example 981]
[out] 9.03

* * *

Biological target: Mcl-1/Bim interaction, recombinant human Mcl-1 (171-327) (Homo sapiens)
Construct: made in house
Assay: Cell free Mcl-1: Bim Affinity Assay (Mcl-1 HTRF)
Format: binding
Conditions: TR-FRET, 0.1 nM Mcl-1 (171-327), 0.05 nM biotin-Bim (51-76)
Experimental: Cell free Mcl-1: Bim Affinity Assay (Mcl-1 HTRF) The inhibition of the Mcl-1/Bim interaction was measured using a time-resolved fluorescence resonance energy transfer (TR-FRET) assay. […] A biotinylated peptide derived from human Bim (residues 51-76) was purchased from CPC Scientific (San Jose, CA). […] The reaction plates were further incubated overnight and then were read on an Envision® multimode reader (PerkinElmer). […]
Binning of IC50 into classes: class 0 (below 0.5 nM), class 1 (0.5 nM to below 3 nM), class 2 (3 nM or more)

[in] Entry CC(=O)N1C[C@H]2C/C=C/[C@H](O)[C@@H]3CC[C@H]3CN3C[C@@]4(CCCc5cc(Cl)ccc54)COc4ccc(cc43)C(=O)NS(=O)(=O)[C@@H]2C1 (single isomer, unassigned) belongs to which category?
[out] class 0

[in] Entry COCC[C@@H]1[C@@H](C)C/C=C/[C@H](O)[C@@H]2CC[C@H]2CN2C[C@@]3(CCCc4cc(Cl)ccc43)COc3ccc(cc32)C(=O)NS1(=O)=O (single isomer, unassigned) belongs to which category?
[out] class 0

[in] Entry COCCOCCN1[C@@H](C)C/C=C/[C@H](O)[C@@H]2CC[C@H]2CN2C[C@@]3(CCCc4cc(Cl)ccc43)COc3ccc(cc32)C(=O)NS1(=O)=O belongs to which category?
[out] class 0

[in] Entry O=C1NS(=O)(=O)CCC[C@H](O)[C@@H]2CC[C@H]2CN2C[C@@]3(CCCc4cc(Cl)ccc43)COc3ccc1cc32 belongs to which category?
[out] class 2

[in] Entry C[C@]12CC[C@H]1CN1C[C@@]3(CCCc4cc(Cl)ccc43)COc3ccc(cc31)C(=O)NS(=O)(=O)CCCCC[C@@H]2O (single isomer, unassigned) [Example 122] belongs to which category?
[out] class 2

* * *

target: Mcl-1/Bim interaction, recombinant human Mcl-1 (171-327) (Homo sapiens, UniProt Q07820); construct: made in house; assay: Cell free Mcl-1: Bim Affinity Assay (Mcl-1 HTRF); type: binding; settings: cell free Mcl-1:Bim TR-FRET, recombinant human Mcl-1 (171-327)
PARAMETER_MEASURED: pIC50
Give bare numbers, as −log10 of the molar value.

Worked cases, pIC50 given:
COMPOUND	pIC50
CC#CC1=CC(O)CCC(C)S(=O)(=O)NC(=O)c2ccc3c(c2)N(CC2CCC12)CC1(CCCc2cc(Cl)ccc21)CO3 (single isomer, unassigned) [Example 605]	9.03
C[C@@H]1CS(=O)(=O)NC(=O)c2ccc3c(c2)N(C[C@@H]2CC[C@H]2[C@@H]2C[C@H](CCO2)O1)C[C@@]1(CCCc2cc(Cl)ccc21)CO3 (single isomer, unassigned) [Example 921]	8.68
CC[C@@H]1CCCCC[C@H](O)[C@@H]2CC[C@H]2CN2C[C@@]3(CCCc4cc(Cl)ccc43)COc3ccc(cc32)C(=O)NS1(=O)=O	8.74
CCOC(=O)CO[C@H]1/C=C/C[C@H](C)[C@H](C)S(=O)(=O)NC(=O)c2ccc3c(c2)N(C[C@@H]2CC[C@H]21)C[C@@]1(CCCc2cc(Cl)ccc21)CO3	8.49
O=C1NS(=O)(=O)C[C@H](CO)/C=C/C[C@H](O)[C@@H]2CC[C@H]2CN2C[C@@]3(CCCc4cc(Cl)ccc43)COc3ccc1cc32 (single isomer, unassigned)	8.35

Hi team, please reply with pIC50 for each item in this list.
1. C[C@@H]1[C@@H](C)C/C=C/[C@H](OCCCN2CCOCC2)[C@@H]2CC[C@H]2CN2C[C@@]3(CCCc4cc(Cl)ccc43)COc3ccc(cc32)C(=O)NS1(=O)=O
2. COCCN1CCC/C=C/[C@H](O)[C@@H]2CC[C@H]2CN2C[C@@]3(CCCc4cc(Cl)ccc43)COc3ccc(cc32)C(=O)NS1(=O)=O
3. CC1CC=CC(O)C2CCC2CN2CC3(CCCc4cc(Cl)ccc43)COc3ccc(cc32)C(=O)NS(=O)(=O)C1CC(F)(F)F (single isomer, unassigned)
4. CC1C(C2CC2)CC=CC(O)C2CCC2CN2CC3(CCCc4cc(Cl)ccc43)COc3ccc(cc32)C(=O)NS1(=O)=O (single isomer, unassigned)
5. CC[N+](CC)(CC)CCO[C@H]1/C=C/C[C@H](C)[C@@H](C)S(=O)(=O)NC(=O)c2ccc3c(c2)N(C[C@@H]2CC[C@H]21)C[C@@]1(CCCc2cc(Cl)ccc21)CO3 [Example 533, 2,2,2-trifluoroacetate]
6. O=C1NS(=O)(=O)CCOC/C=C/[C@@H]2CC[C@H]2CN2C[C@@]3(CCc4cc(Cl)ccc43)COc3ccc1cc32

[out]
9.27
8.54
9.51
8.02
9.23
7.53

* * *

biological target: Mcl-1/Bim interaction, recombinant human Mcl-1 (171-327) (Homo sapiens, UniProt Q07820); construct: made in house; assay: Cell free Mcl-1: Bim Affinity Assay (Mcl-1 HTRF); type: binding; conditions: cell free Mcl-1:Bim TR-FRET, recombinant human Mcl-1 (171-327)
pIC50: −log10 of the molar value.
Given measured pIC50, output Satisfied if it is greater than or equal to 8 and Not satisfied if not.

COMPOUND	ASSAY_TARGET	ASSIGNED_CLASS
O=C1NS(=O)(=O)CCC[C@]2(O)CCO[C@H](C2)[C@@H]2CC[C@H]2CN2C[C@@]3(CCCc4cc(Cl)ccc43)COc3ccc1cc32 (single isomer, unassigned) [Example 901]	Mcl-1/Bim interaction, recombinant human Mcl-1 (171-327) (Homo sapiens, UniProt Q07820)	Satisfied

[in] Dear colleague, could you confirm whether COC[C@H](O)C[C@@H]1CC/C=C/[C@H](OC)[C@@H]2CC[C@H]2CN2C[C@@]3(CCCc4cc(Cl)ccc43)COc3ccc(cc32)C(=O)NS1(=O)=O (single isomer, unassigned) [Example 651] has pIC50 at or above 8?
[out] Satisfied

[in] Dear colleague, could you confirm whether CC[C@@H]1CC/C=C/[C@H](O)[C@@H]2CC[C@H]2CN2C[C@@]3(CCCc4nc(Cl)ccc43)COc3ccc(cc32)C(=O)NS1(=O)=O [Example 798] has pIC50 at or above 8?
[out] Satisfied

[in] Dear colleague, could you confirm whether O=C1C[C@H](O)[C@@H]2CC[C@H]2CN2C[C@@]3(CCCc4cc(Cl)ccc43)COc3ccc(cc32)C(=O)NS(=O)(=O)CCN1 (single isomer, unassigned) [Example 681] has pIC50 at or above 8?
[out] Not satisfied

* * *

target: Mcl-1/Bim interaction, recombinant human Mcl-1 (171-327) (Homo sapiens, UniProt Q07820); construct: made in house; test: Cell free Mcl-1: Bim Affinity Assay (Mcl-1 HTRF); type: binding; conditions: TR-FRET, 0.1 nM Mcl-1 (171-327), 0.05 nM biotin-Bim (51-76)
Answer each item with its documented IC50.
Give bare numbers, in nM.

COMPOUND	ASSAY_TARGET	UNITS_TEXT	IC50
C[C@H]1C/C=C\[C@H](O)[C@@H]2CC[C@H]2CN2C[C@@]3(CCCc4cc(Cl)ccc43)COc3ccc(cc32)C(=O)NS(=O)(=O)N1C[C@H]1CCCO1 (single isomer, unassigned)	Mcl-1/Bim interaction, recombinant human Mcl-1 (171-327) (Homo sapiens, UniProt Q07820)	nM	0.781
COCCO[C@H]1/C=C/C[C@@H]2CC[C@H]2S(=O)(=O)NC(=O)c2ccc3c(c2)N(C[C@@H]2CC[C@H]21)C[C@@]1(CCCc2cc(Cl)ccc21)CO3	Mcl-1/Bim interaction, recombinant human Mcl-1 (171-327) (Homo sapiens, UniProt Q07820)	nM	0.494
C=C1[C@@H](C)C/C=C/[C@H](O)[C@@H]2CC[C@H]2CN2C[C@@]3(CCCc4cc(Cl)ccc43)COc3ccc(cc32)C(=O)NS1(=O)=O (single isomer, unassigned)	Mcl-1/Bim interaction, recombinant human Mcl-1 (171-327) (Homo sapiens, UniProt Q07820)	nM	0.299
CNC(=O)CN1CC/C=C/[C@H](O)[C@@H]2CC[C@H]2CN2C[C@@]3(CCCc4cc(Cl)ccc43)COc3ccc(cc32)C(=O)NS1(=O)=O	Mcl-1/Bim interaction, recombinant human Mcl-1 (171-327) (Homo sapiens, UniProt Q07820)	nM	0.314
C[C@@H]1[C@@H](C)C/C=C/[C@H](O[C@@H]2CCOC2=O)[C@@H]2CC[C@H]2CN2C[C@@]3(CCCc4cc(Cl)ccc43)COc3ccc(cc32)C(=O)NS1(=O)=O (single isomer, unassigned)	Mcl-1/Bim interaction, recombinant human Mcl-1 (171-327) (Homo sapiens, UniProt Q07820)	nM	0.333
CCC1CCC=CC(OC(C)C(=O)OC)C2CCC2CN2CC3(CCCc4cc(Cl)ccc43)COc3ccc(cc32)C(=O)NS1(=O)=O (mixture of isomers)	Mcl-1/Bim interaction, recombinant human Mcl-1 (171-327) (Homo sapiens, UniProt Q07820)	nM	0.635

Hi team, please reply with IC50 for each item in this list.
1. CO[C@@H]1/C=C/CCCCS(=O)(=O)NC(=O)c2ccc3c(c2)N(C[C@@H]2CC[C@H]21)C[C@@]1(CCCc2cc(Cl)ccc21)CO3
2. COc1ccc(CN2[C@@H](C)C/C=C/[C@H](O)[C@@H]3CC[C@H]3CN3C[C@@]4(CCCc5cc(Cl)ccc54)COc4ccc(cc43)C(=O)NS2(=O)=O)cc1 (single isomer, unassigned)
3. CO[C@H]1C[C@@H](N2[C@@H](C)C/C=C\[C@H](O)[C@@H]3CC[C@H]3CN3C[C@@]4(CCCc5cc(Cl)ccc54)COc4ccc(cc43)C(=O)NS2(=O)=O)C1

[out]
1. 1.62
2. 8.98
3. 1.45

Hi team, please reply with IC50 for each item in this list.
1. CO[C@@H]1/C=C/CCCS(=O)(=O)NC(=O)c2ccc3c(c2)N(C[C@@H]2CC[C@H]21)C[C@@]1(CCCc2cc(Cl)ccc21)CO3
2. CCN1CC/C=C/[C@H](OCc2cscn2)[C@@H]2CC[C@H]2CN2C[C@@]3(CCCc4cc(Cl)ccc43)COc3ccc(cc32)C(=O)NS1(=O)=O

[out]
[3.69, 1.71]
